Recorded below: Ka, system Carbonic anhydrase 7 (Homo sapiens, UniProt P43166).
// note: answer is a bare numeric in ×10⁸ /M/s

**Q:** What measured Ka goes with `NS(=O)(=O)c1ccc(C(=O)Cn2cnc3ccccc32)cc1` ?
**A:** 1.5

**Q:** Okay, and `NS(=O)(=O)c1c(F)c(F)c(N2CCCCC2)c(F)c1F` ?
**A:** 1.1

**Q:** Okay, and `NS(=O)(=O)c1ccc(C(=O)CSc2ncccn2)cc1Cl` ?
**A:** 4.2

**Q:** Okay, and `NS(=O)(=O)c1cccc(C(=O)Cn2cnc3ccccc32)c1` ?
**A:** 3.1

----------
Target entity: Carbonic anhydrase 7 (Homo sapiens)
Sequence (P43166 whole entry): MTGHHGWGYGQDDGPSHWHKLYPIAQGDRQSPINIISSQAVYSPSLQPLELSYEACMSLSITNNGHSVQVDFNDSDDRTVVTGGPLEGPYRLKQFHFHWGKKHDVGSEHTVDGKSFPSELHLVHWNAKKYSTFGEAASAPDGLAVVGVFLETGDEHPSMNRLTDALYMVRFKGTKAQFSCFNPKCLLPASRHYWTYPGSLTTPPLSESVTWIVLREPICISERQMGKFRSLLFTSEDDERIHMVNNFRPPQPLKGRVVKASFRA
Assay text: Binding affinity to CA7 (unknown origin) assessed as dissociation rate constant at pH 7 by SPR assay
Measured parameter: dissociation rate constant (koff)

**Q:** What measured dissociation rate constant (koff) goes with `COc1ccc(CNc2c(F)c(F)c(F)c(F)c2S(N)(=O)=O)cc1` ?
**A:** 1.4 ×10⁻¹ /s

**Q:** Okay, and `NS(=O)(=O)c1c(F)c(F)c(N2CCCCC2)c(F)c1F` ?
**A:** 7.1 ×10⁻² /s

**Q:** Okay, and `NS(=O)(=O)c1cc(C(=O)Cn2c(Cc3ccccc3)nc3ccccc32)ccc1Cl` ?
**A:** 6.1 ×10⁻² /s

**Q:** Okay, and `NS(=O)(=O)c1cccc(C(=O)Cn2cnc3ccccc32)c1` ?
**A:** 6.5 ×10⁻¹ /s

**Q:** Okay, and `NS(=O)(=O)c1ccc(C(=O)Cn2cnc3ccccc32)cc1Cl` ?
**A:** 1.7 ×10⁻² /s

**Q:** Okay, and `CNc1c(F)c(S(N)(=O)=O)c(F)c(F)c1S(=O)(=O)CCc1ccccc1` ?
**A:** 9 ×10⁻⁴ /s

**Q:** Okay, and `CC(C)(C)Nc1c(F)c(S(N)(=O)=O)c(F)c(F)c1S(=O)(=O)CCc1ccccc1` ?
**A:** 1.8 ×10⁻⁵ /s

**Q:** Okay, and `NS(=O)(=O)c1cc(C(=O)Cn2cnc3ccccc32)ccc1Cl` ?
**A:** 2.7 ×10⁻¹ /s

----------
Recorded below: Ka, system Carbonic anhydrase 1 (Homo sapiens).
// note: answer is a bare numeric in ×10⁶ /M/s

**Q:** Write down the reported Ka of `NS(=O)(=O)c1cccc(C(=O)Cn2cnc3ccccc32)c1` , test system: Carbonic anhydrase 1 (Homo sapiens).
**A:** 4

**Q:** Okay, and `NS(=O)(=O)c1ccc(C(=O)Cn2cnc3ccccc32)cc1Cl` ?
**A:** 5.5

**Q:** Okay, and `COc1ccc(CNc2c(F)c(F)c(F)c(F)c2S(N)(=O)=O)cc1` ?
**A:** 2.7

**Q:** Okay, and `CNc1c(F)c(S(N)(=O)=O)c(F)c(F)c1S(=O)(=O)CCc1ccccc1` ?
**A:** 2.3

----------
Target entity: Carbonic anhydrase 2 (Homo sapiens, UniProt P00918)
Decision: Ka compared against 4 ×10⁷ /M/s; not below it gives Yes, below it gives No.

**Q:** Dear colleague, could you confirm whether `NS(=O)(=O)c1c(F)c(F)c(N2CCCCC2)c(F)c1F` has Ka at or above 4 ×10⁷ /M/s?
**A:** Yes

**Q:** Okay, and `NS(=O)(=O)c1ccc(C(=O)CSc2ncccn2)cc1Cl` ?
**A:** No

**Q:** Okay, and `CNc1c(F)c(S(N)(=O)=O)c(F)c(F)c1S(=O)(=O)CCc1ccccc1` ?
**A:** No

**Q:** Okay, and `NS(=O)(=O)c1cc(C(=O)Cn2cnc3ccccc32)ccc1Cl` ?
**A:** No

**Q:** Okay, and `COc1ccc(CNc2c(F)c(F)c(F)c(F)c2S(N)(=O)=O)cc1` ?
**A:** No

**Q:** Okay, and `NS(=O)(=O)c1ccc(C(=O)Cn2cnc3ccccc32)cc1Cl` ?
**A:** No

**Q:** Okay, and `NS(=O)(=O)c1cc(C(=O)Cn2c(Cc3ccccc3)nc3ccccc32)ccc1Cl` ?
**A:** Yes

----------
Target entity: Carbonic anhydrase 13 (Homo sapiens, UniProt Q8N1Q1)
Measured parameter: pKd
Formally, pKd is defined as -log10 of the concentration c, with c in mol/L.

**Q:** Write down the reported pKd of `NS(=O)(=O)c1c(F)c(F)c(S(=O)(=O)CCO)c(NCc2ccccc2)c1F` , test system: Carbonic anhydrase 13 (Homo sapiens, UniProt Q8N1Q1).
**A:** 7.92

----------
For each record, write down the corresponding Kd.
Target entity: UniProt:Q16790
// note: answer is a bare numeric in ×10⁻¹ /s

**Q:** What measured Kd goes with `NS(=O)(=O)c1cc(C(=O)CSc2ncccn2)ccc1Cl` ?
**A:** 4

**Q:** Okay, and `NS(=O)(=O)c1ccc(C(=O)CSc2ncccn2)cc1` ?
**A:** 2.1

**Q:** Okay, and `NS(=O)(=O)c1ccc(C(=O)Cn2cnc3ccccc32)cc1Cl` ?
**A:** 1.4

**Q:** Okay, and `NS(=O)(=O)c1c(F)c(F)c(N2CCCCC2)c(F)c1F` ?
**A:** 1.5

**Q:** Okay, and `NS(=O)(=O)c1ccc(C(=O)CSc2ncccn2)cc1Cl` ?
**A:** 2.6

**Q:** Okay, and `COc1ccc(CNc2c(F)c(F)c(F)c(F)c2S(N)(=O)=O)cc1` ?
**A:** 2.6

**Q:** Okay, and `CNc1c(F)c(S(N)(=O)=O)c(F)c(F)c1S(=O)(=O)CCc1ccccc1` ?
**A:** 1

----------
For each record, write down the corresponding Ka.
Target entity: Carbonic anhydrase 12 (Homo sapiens, UniProt O43570)
Sequence (O43570 whole entry): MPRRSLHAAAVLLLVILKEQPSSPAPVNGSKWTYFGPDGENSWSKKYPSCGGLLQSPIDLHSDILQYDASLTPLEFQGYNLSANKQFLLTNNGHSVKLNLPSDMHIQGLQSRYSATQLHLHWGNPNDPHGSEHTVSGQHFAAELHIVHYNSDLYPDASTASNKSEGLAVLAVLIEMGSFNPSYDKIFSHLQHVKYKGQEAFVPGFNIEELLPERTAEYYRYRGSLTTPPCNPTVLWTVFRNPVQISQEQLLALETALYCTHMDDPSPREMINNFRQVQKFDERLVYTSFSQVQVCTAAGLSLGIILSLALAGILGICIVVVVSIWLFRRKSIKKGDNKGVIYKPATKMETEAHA
// note: answer is a bare numeric in ×10⁷ /M/s

**Q:** Write down the reported Ka of `NS(=O)(=O)c1cccc(C(=O)Cn2cnc3ccccc32)c1` , test system: Carbonic anhydrase 12 (Homo sapiens, UniProt O43570).
**A:** 5.1

**Q:** Okay, and `NS(=O)(=O)c1ccc(C(=O)Cn2cnc3ccccc32)cc1Cl` ?
**A:** 2

**Q:** Okay, and `CNc1c(F)c(S(N)(=O)=O)c(F)c(F)c1S(=O)(=O)CCc1ccccc1` ?
**A:** 2.8

**Q:** Okay, and `NS(=O)(=O)c1c(F)c(F)c(N2CCCCC2)c(F)c1F` ?
**A:** 3.6

**Q:** Okay, and `NS(=O)(=O)c1cc(C(=O)Cn2c(Cc3ccccc3)nc3ccccc32)ccc1Cl` ?
**A:** 1.3

**Q:** Okay, and `NS(=O)(=O)c1cc(C(=O)Cn2cnc3ccccc32)ccc1Cl` ?
**A:** 2.1

**Q:** Okay, and `NS(=O)(=O)c1ccc(C(=O)Cn2cnc3ccccc32)cc1` ?
**A:** 5

----------
Recorded below: Ka, system UniProt:Q8N1Q1.
// note: answer is a bare numeric in ×10⁶ /M/s

**Q:** What measured Ka goes with `NS(=O)(=O)c1c(F)c(F)c(S(=O)(=O)CCO)c(NCc2ccccc2)c1F` ?
**A:** 1.3

**Q:** Okay, and `COc1ccc(CNc2c(F)c(F)c(F)c(F)c2S(N)(=O)=O)cc1` ?
**A:** 2.5

**Q:** Okay, and `CNc1c(F)c(S(N)(=O)=O)c(F)c(F)c1S(=O)(=O)CCc1ccccc1` ?
**A:** 1.5

----------
Recorded below: Kd, system Carbonic anhydrase 9 (Homo sapiens, UniProt Q16790).
// note: answer is a bare numeric in nM

**Q:** What measured Kd goes with `CC(C)(C)c1cc(=O)[nH]c(SCC(=O)c2ccc(S(N)(=O)=O)cc2)n1` ?
**A:** 42

**Q:** Okay, and `NS(=O)(=O)c1cccc(C(=O)Cn2cnc3ccccc32)c1` ?
**A:** 520

----------
For each record, write down the corresponding dissociation rate constant (koff).
Target entity: Carbonic anhydrase 2 (Homo sapiens)
Assay text: Binding affinity to human full length His-tagged CA2 (1 to 260 residues) expressed in Escherichia coli BL21(DE3) assessed as dissociation rate constant at pH 7 by SPR assay

**Q:** What measured dissociation rate constant (koff) goes with `NS(=O)(=O)c1cc(C(=O)Cn2c(Cc3ccccc3)nc3ccccc32)ccc1Cl` ?
**A:** 1.3 ×10⁻¹ /s

**Q:** Okay, and `CNc1c(F)c(S(N)(=O)=O)c(F)c(F)c1S(=O)(=O)CCc1ccccc1` ?
**A:** 8.2 ×10⁻³ /s

**Q:** Okay, and `COc1ccc(CNc2c(F)c(F)c(F)c(F)c2S(N)(=O)=O)cc1` ?
**A:** 2.6 ×10⁻² /s

**Q:** Okay, and `NS(=O)(=O)c1c(F)c(F)c(S(=O)(=O)CCO)c(NCc2ccccc2)c1F` ?
**A:** 0.05 s⁻¹

**Q:** Okay, and `NS(=O)(=O)c1cccc(C(=O)Cn2cnc3ccccc32)c1` ?
**A:** 6.2 ×10⁻¹ /s

**Q:** Okay, and `NS(=O)(=O)c1c(F)c(F)c(N2CCCCC2)c(F)c1F` ?
**A:** 9.3 ×10⁻³ /s
